// provenance: patent US20220251081A1

assayed-target: MAT2A homodimer (Homo sapiens, UniProt P31153)
Construct: inferred from Ni sepharose purification and imidazole elution
Sequence (P31153 whole entry): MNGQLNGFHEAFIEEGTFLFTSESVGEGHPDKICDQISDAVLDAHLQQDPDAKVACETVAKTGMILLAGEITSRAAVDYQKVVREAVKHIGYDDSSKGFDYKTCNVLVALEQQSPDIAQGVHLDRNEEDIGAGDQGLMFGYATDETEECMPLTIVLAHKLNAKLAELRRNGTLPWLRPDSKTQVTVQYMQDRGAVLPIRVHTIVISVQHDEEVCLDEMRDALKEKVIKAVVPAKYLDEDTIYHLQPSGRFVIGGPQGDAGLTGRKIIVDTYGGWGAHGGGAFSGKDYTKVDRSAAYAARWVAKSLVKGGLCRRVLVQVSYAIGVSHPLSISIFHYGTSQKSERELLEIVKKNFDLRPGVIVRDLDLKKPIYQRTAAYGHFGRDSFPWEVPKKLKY
test-protocol: Biochemical assay: inhibition of recombinant MAT2A homodimer (phosphate release, PiColorLock Gold)
condition-notes: MAT2A IC50 score; read-out: Enzyme Inhibition
Give IC50 for every item shown.

Worked cases, IC50 given:
>>> df
                                   compound  test_readout       obs_value
0  COc1ccc(-n2c(=O)c(-c3ccc(OC)cn3)cc3cnc(NCC(F)(F)F)nc32)cc1 [Example 175]          IC50  100 to 1000 nM
1  [2H]C([2H])([2H])Oc1ccc(-n2c(=O)c(-c3ccc4nn(C)cc4c3)cc3ncc(OCC(F)F)nc32)cc1 [Example 344]          IC50        < 100 nM
2  [2H]C([2H])([2H])Oc1ccc(-n2c(=O)c(-c3ccc4nn(C)cc4c3)cc3ccc(O[C@@H](C)C(F)(F)F)nc32)cc1 [Example 305]          IC50        < 100 nM

// next entry
response.value for COc1ccc(-c2cc3cnc(NCC(F)(F)F)nc3n(-c3ccc(C4CC4)cc3)c2=O)cc1 [Example 118] (field: IC50) = < 100 nM
